Test: qHTS Assay for NPC1 Promoter Activators: Hit Validation Using Firefly Luciferase Read-Out for Rab9
Settings: Huh7 Rab9 promoter firefly luciferase reporter, 24 h; series mostly up to 46.1 µM
Records with an inconclusive call do not appear. The source made the active and inactive calls. The call rests on the fitted dose curve; in most records, active means well fitted activation curve with a large enough effect; inconclusive means small, poorly fitted or top-dose-only effect; inactive means no such curve, though single readings can be large or run the other way.
A correct response names exactly one class from class 1 = active, class 0 = inactive

Ask | Name the outcome recorded for Cc1ccc(NC(=O)COC(=O)C2C3CC4OC(=O)C2C4C3)cc1Cl (centres undefined) in the assay.
Reply | class 0

Ask | Name the outcome recorded for "CCc1cc2c(N=Nc3c(O)[nH]c4ccccc34)ncnc2s1" in the assay.
Reply | class 0

Ask | Name the outcome recorded for CC1CCCN(S(=O)(=O)c2ccc(C(=O)Nc3nnc(-c4ccncc4)o3)cc2)C1 (centres undefined) in the assay.
Reply | class 0

Ask | Name the outcome recorded for "O=C(NC(=S)Nc1ccc(CN2CCCCC2)cc1)c1cc2ccccc2o1" in the assay.
Reply | class 0

Ask | Name the outcome recorded for "O=C(CSc1nnc(-c2ccccc2)o1)Nc1ccccc1F" in the assay.
Reply | class 1

Ask | Name the outcome recorded for "COc1ccc([N+](=O)[O-])cc1COc1ccc2c(-c3ccccc3)cc(=O)oc2c1" in the assay.
Reply | class 0

Ask | Name the outcome recorded for "Cc1ccc(NC(=O)NC(=O)c2ccccc2)cc1F" in the assay.
Reply | class 1

Ask | Name the outcome recorded for "O=C(CSc1nccn1Cc1ccco1)Nc1ccccc1F" in the assay.
Reply | class 0

Ask | Name the outcome recorded for "Cc1cccc(N2CCN(C(=S)c3ccccc3)CC2)c1" in the assay.
Reply | class 0

Source listed as PubChem BioAssay AID720525.
